# key: entry, value: pKi
target: MaltOBP10 (Monochamus alternatus, UniProt A0A1I9HZL5); construct: gene obp10; said to encode mature protein (clone primer starts at ATG); assay: biochemical; set-up: 1-NPN fluorescence displacement competitive binding to 2 uM recombinant OBP; Ki from IC50; settings: pH 5.0; read-out: MaltOBP10 / pH5.0
Sequence (A0A1I9HZL5 1-144 limits assumed): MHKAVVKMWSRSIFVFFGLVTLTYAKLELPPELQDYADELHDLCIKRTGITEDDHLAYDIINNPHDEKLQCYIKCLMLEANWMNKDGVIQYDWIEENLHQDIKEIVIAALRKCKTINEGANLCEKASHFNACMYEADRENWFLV
pKi: −log10 of the molar value.

Molecule: C=CC(=C)CCC=C(C)C
Target under test: MaltOBP10 (Monochamus alternatus, UniProt A0A1I9HZL5)
pKi: 4.71

Molecule: CC1=CCC(=C(C)C)CC1
Target under test: MaltOBP10 (Monochamus alternatus, UniProt A0A1I9HZL5)
pKi: 4.81

Molecule: Cc1ccc(C(C)C)cc1
Target under test: MaltOBP10 (Monochamus alternatus, UniProt A0A1I9HZL5)
pKi: 4.45

Molecule: CC1(C)C(=O)[C@@]2(C)CC[C@@H]1C2 [(+)-Fenchone]
Target under test: MaltOBP10 (Monochamus alternatus, UniProt A0A1I9HZL5)
pKi: 4.61

Molecule: CC1(C)[C@H]2CC[C@]1(C)C(=O)C2 (racemic)
Target under test: MaltOBP10 (Monochamus alternatus, UniProt A0A1I9HZL5)
pKi: 4.67

Molecule: C=C(C)[C@@H]1CC=C(C)CC1 [S-(−)-Limonene]
Target under test: MaltOBP10 (Monochamus alternatus, UniProt A0A1I9HZL5)
pKi: 4.29
